target: T1, hD53 bait (GAL4 DNA-binding domain fusion, pAS2-1hD53) (human, UniProt P04386 1-147 (Saccharomyces cerevisiae entry)); assay: yeast two-hybrid screening of a human breast carcinoma cDNA library in Y190 (His+ lacZ+)
T1 construct: Fusion expressed in yeast; also called full-length hD53 bait

- binder: "+5 hD53 library interactor (novel hD53 isoform, pAD-GAL4 clone) (other, range 761-881; also called nt 1 (Ser^1)) PSALFGGANFNQSGNIADSSLSFTFTNSSNGPNLITTQTNSQALSQPIASSNVHDNFMNNEITASKIDDGNNSKPLSPGWTDQTAYNAFGITTGMFNTTTMDDVYNYLFDDEDTPPNPKKESSWLPWSEVLHRPWRNHPICLLETEPLQGTDEDAVASADFSSMLSEEEKEELKAELVQLEDEITTLRQVLSAKERHLVEIKQKLGMNLMNELKQNFSKSWHDMQTTTAYKKTHETLSHAGQKATAAFSNVGTAISKKFGDMRRK"
  binding result: "binds"
- binder: "hD53 library interactor, pAD-GAL4 clone beginning at nt 111 of the hD53 cDNA (<Met1) (other, range 761-881; also called nt 111 (<Met^1)) PSALFGGANFNQSGNIADSSLSFTFTNSSNGPNLITTQTNSQALSQPIASSNVHDNFMNNEITASKIDDGNNSKPLSPGWTDQTAYNAFGITTGMFNTTTMDDVYNYLFDDEDTPPNPKKEMEAQAQGLLETEPLQGTDEDAVASADFSSMLSEEEKEELKAELVQLEDEITTLRQVLSAKERHLVEIKQKLGMNLMNELKQNFSKSWHDMQTTTAYKKTHETLSHAGQKATAAFSNVGTAISKKFGDMSYSIRHSISMPAMRNSPTFKSFEERVETTVTSLKTKVGGTNPNGGSFEEVLSSTAHASAQSLAGGSRRTKEEELQC"
  binding result: "binds"
- binder: "hD52 interactor (GAL4 activation domain fusion, pAD-GAL4hD52) (other, range 761-881; also called hD52^c) PSALFGGANFNQSGNIADSSLSFTFTNSSNGPNLITTQTNSQALSQPIASSNVHDNFMNNEITASKIDDGNNSKPLSPGWTDQTAYNAFGITTGMFNTTTMDDVYNYLFDDEDTPPNPKKEMDRGEQGLLRTDPVPEEGEDVAATISATETLSEEEQEELRRELAKVEEEIQTLSQVLAAKEKHLAEIKRKLGINSLQELKQNIAKGWQDVTATSAYKKTSETLSQAGQKASAAFSSVGSVITKKLEDVKNSPTFKSFEEKVENLKSKVGGTKPAGGDFGEVLNSAANASATTTEPLPEKTQESL"
  binding result: "binds"
